Entries and their measured Neutralization IC50 (RSV subtype A) follow.
Tested system: RSV F on RSV-A2 virus (Respiratory Syncytial Virus (RSV-A2), UniProt P03420 26-574)
Assay remarks: cell-based or functional assay
Parameter measured: Neutralization IC50 (RSV subtype A)

Binder	Endpoint result
ADI-41515 (antibody, V domains shown) VH: QVQLVESGGGLVQPGGSLRLSCAASGFTFSDYAMSWVRQAPGKGLVWVSSISGSGKFTYYEDSLRGRVTISRDNSKNTVYLHMNSLRTEDTALYYCARLRIPVINEVDGAMDVWGQGTTVTVSS VL: SYELTQLPSVSVSPGQTARITCSGDALPKKFAYWYQQKSGQAPVLVIYEDTGRPSGIPERFSGSTSGTTATLTINGAQVEDEGDYYCYSADSSDNQGVFGGGTKVTVL	> 25 µg/mL
ADI-41479 (antibody, V domains shown) VH: QVQLVQSGAEVKKPGESLKISCKGSGYSFISYWIGWVRQMPGKGLEWMGIIYPADSDTRYSPSFQGQVTISVDKSISTAYLQWSSLKASDTGMYYCVRYGVGGTAPRYWGQGTTVTVSS VL: NFMLTQPHSVSESPGKTVTISCTGSSGSIASNYVHWYQQRPGSAPTTVIYEDNQRPSGVPDRFSGSIDSSSNSASLTISGLKTEDEADYYCQSYDISNLWVFGGGTKLTVL	0.46 µg/mL
ADI-41475 (antibody, V domains shown) VH: QVQLQESGPGLVKPSQTLSLTCAISGDSVSSNSAAWNWIRQSPSRGLEWLGRTYYRSKWWTDYAVSVKSRITINPDTSKNQFSLQLNSVTPEDTAVYYCARDPDSGNYFHYYGMDVWGQGTTVTVSS VL: ETTLTQSPATLSLSPGERATLSCRASQSASSYLAWYQQKPGQAPRLLIYDASKRATGIPARFSGSGSGTDFSLTISSLEPEDFAVYYCQLRSKWPPYTFGQGTKVEIK	> 25 µg/mL
